# testedOn: T1, recombinant human IL4Rα-his protein (in house made) (human, UniProt P24394 26-232, limits assumed)
# T1 construct: also called Human IL4Ra-his
# experimentDescription: competitive ELISA: coated human IL4Rα-his, blocked ligand biotin human IL4
metric: pIC50
Friendly reminder that pIC50 comes from taking -log10 of the concentration in mol/L.

Quick note, pIC50 for mouse antibody B8G11F2B7G5E8 (antibody, V domains shown, Mouse hybridoma mAb; also called Mouse B8G11F2B7G5E8; mAb B8G11F2B7G5E8) VH: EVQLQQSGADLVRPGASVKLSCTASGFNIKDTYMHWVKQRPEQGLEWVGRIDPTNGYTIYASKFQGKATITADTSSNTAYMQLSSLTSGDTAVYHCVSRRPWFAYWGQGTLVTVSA VL: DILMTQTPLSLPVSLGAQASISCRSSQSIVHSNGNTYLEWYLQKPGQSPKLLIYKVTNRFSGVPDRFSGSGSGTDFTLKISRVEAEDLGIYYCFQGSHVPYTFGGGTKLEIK landed at 9.00
